Target: T1, Hrq1-K318A (Saccharomyces cerevisiae, UniProt Q05549 1-1077, K318A)
T1 sequence: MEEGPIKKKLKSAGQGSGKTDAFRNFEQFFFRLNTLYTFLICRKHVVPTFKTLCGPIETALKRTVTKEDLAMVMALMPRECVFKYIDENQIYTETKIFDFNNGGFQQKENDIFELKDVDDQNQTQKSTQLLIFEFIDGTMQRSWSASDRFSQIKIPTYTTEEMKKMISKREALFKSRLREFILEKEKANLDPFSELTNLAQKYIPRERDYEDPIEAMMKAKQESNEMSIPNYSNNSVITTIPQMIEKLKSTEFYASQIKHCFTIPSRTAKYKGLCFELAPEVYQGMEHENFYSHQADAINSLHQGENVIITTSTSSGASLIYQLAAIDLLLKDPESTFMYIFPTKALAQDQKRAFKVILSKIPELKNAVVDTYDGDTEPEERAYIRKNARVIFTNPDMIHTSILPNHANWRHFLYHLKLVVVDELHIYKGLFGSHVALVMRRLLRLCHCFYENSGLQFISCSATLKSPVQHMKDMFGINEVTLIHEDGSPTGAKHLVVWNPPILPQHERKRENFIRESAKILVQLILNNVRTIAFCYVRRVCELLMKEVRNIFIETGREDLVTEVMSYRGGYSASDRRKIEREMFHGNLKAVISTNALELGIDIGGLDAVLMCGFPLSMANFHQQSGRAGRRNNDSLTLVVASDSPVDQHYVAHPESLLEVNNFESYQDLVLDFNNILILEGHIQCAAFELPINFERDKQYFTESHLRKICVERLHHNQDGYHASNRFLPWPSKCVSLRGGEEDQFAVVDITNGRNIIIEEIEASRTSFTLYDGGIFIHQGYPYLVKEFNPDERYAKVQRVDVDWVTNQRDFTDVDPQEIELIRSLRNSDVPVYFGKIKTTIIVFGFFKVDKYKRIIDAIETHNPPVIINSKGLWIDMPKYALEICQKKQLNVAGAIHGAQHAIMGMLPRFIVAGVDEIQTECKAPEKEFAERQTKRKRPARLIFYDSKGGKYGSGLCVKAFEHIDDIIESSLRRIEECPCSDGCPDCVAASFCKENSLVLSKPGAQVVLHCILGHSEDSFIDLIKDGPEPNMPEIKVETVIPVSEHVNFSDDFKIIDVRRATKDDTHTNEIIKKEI
Test: EMSA
Measurement name: Kd (nM)

>>> value_observed("CGCCATGCTGATCCGTGTGGTGTGTGTGGG (ssDNA) [Tel30]")
105
